Tested on: Bel-7402
assay.summary: MTT cytotoxicity assay, Bel-7402
Type: cell-based, human
particulars: 72 h
quantity.kind: IC50 (µM)

| molecule | quantity.kind | units.text | reading |
| --- | --- | --- | --- |
| Cc1nc(C)c(COc2ccc(/C=C/C(=O)c3c(O)cc(OCc4nc(C)c(C)nc4C)cc3OCc3nc(C)c(C)nc3C)cc2)nc1C | IC50 | µM | 10.7 |
| N.N.[Cl][Pt][Cl] [DDP, reference compound] | IC50 | µM | 6.73 |

====

System: HepG-2
assay.summary: MTT cytotoxicity assay, HepG-2
Assay type: cell-based, human
particulars: Homo sapiens, HepG2, 72 h

| smiles | comparison.operator | IC50 [µM] |
| --- | --- | --- |
| O=c1c(O)c(-c2ccc(O)c(O)c2)oc2cc(O)cc(O)c12 | = | 13.6 |
| Cc1nc(C)c(COc2cc(O)c3c(=O)cc(-c4ccccc4)oc3c2)nc1C | > | 40 |
| O=c1cc(-c2ccc(O)c(O)c2)oc2cc(O)cc(O)c12 | = | 11.8 |
| O=c1cc(-c2ccc(O)cc2)oc2cc(O)cc(O)c12 | = | 16.1 |
| Cc1nc(C)c(COc2ccc(/C=C/C(=O)c3c(OCc4nc(C)c(C)nc4C)cc(OCc4nc(C)c(C)nc4C)cc3OCc3nc(C)c(C)nc3C)cc2)nc1C | = | 20.6 |
| Cc1nc(C)c(COc2ccc(-c3coc4cc(OCc5nc(C)c(C)nc5C)ccc4c3=O)cc2)nc1C | > | 40 |
| O=c1cc(-c2ccccc2)oc2cc(O)c(O)c(O)c12 | = | 20.4 |

====

System: MCF-7
assay.summary: MTT cytotoxicity assay, MCF-7
Format: cell-based, human
particulars: 72 h

| compound | tested.target | units.text | IC50 |
| --- | --- | --- | --- |
| N.N.[Cl][Pt][Cl] [DDP, reference compound] | MCF-7 | µM | 6.75 |

====

Tested on: HeLa
assay.summary: MTT cytotoxicity assay, HeLa
Type: cell-based, human
particulars: 72 h
quantity.kind: IC50 (µM)

| compound | units.text | reading |
| --- | --- | --- |
| N.N.[Cl][Pt][Cl] [DDP, reference compound] | µM | 4.76 |

====

Tested on: HepG-2
assay.summary: MTT cytotoxicity assay, HepG-2
Format: cell-based, human
particulars: Homo sapiens, HepG2, 72 h
Listed next: entries and their corresponding IC50.

| smiles | tested.target | IC50, µM |
| --- | --- | --- |
| Cc1nc(C)c(COc2ccc(/C=C/C(=O)c3c(O)cc(OCc4nc(C)c(C)nc4C)cc3OCc3nc(C)c(C)nc3C)cc2)nc1C | HepG-2 | 17.3 |
| O=c1c(O)c(-c2ccc(O)c(O)c2)oc2cc(O)ccc12 | HepG-2 | 17.4 |
| O=c1c(-c2ccc(O)cc2)coc2cc(O)cc(O)c12 | HepG-2 | 19.8 |
| Cc1nc(C)c(COc2ccc(-c3coc4cc(O)ccc4c3=O)cc2)nc1C | HepG-2 | 14.5 |
